# experimentalDetails: Oral toxicity according to OECD Test Guideline TG423
# Assay type: in vivo
# conditionParameters: in vivo, 2000 mg/kg
quantityName: LD50

Query: Suppose we examine the molecule "C=CC(=O)N(C)CC(=O)OC" ; what LD50 value has been reported?
Response: ≥ 2000 mg/kg
